Target: Programmed cell death protein 1/Programmed cell death 1 ligand 1 (Homo sapiens, UniProt Q15116+Q9NZQ7)
Sequence (Q15116 whole entry): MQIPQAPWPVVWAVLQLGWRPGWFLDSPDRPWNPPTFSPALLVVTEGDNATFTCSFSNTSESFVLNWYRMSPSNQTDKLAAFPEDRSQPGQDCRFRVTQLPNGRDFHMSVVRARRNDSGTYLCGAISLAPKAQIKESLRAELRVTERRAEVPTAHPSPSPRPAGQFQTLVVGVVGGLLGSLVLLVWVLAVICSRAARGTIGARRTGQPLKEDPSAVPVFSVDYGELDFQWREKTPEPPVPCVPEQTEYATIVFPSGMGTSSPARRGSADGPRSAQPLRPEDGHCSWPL
Sequence (Q9NZQ7 whole entry): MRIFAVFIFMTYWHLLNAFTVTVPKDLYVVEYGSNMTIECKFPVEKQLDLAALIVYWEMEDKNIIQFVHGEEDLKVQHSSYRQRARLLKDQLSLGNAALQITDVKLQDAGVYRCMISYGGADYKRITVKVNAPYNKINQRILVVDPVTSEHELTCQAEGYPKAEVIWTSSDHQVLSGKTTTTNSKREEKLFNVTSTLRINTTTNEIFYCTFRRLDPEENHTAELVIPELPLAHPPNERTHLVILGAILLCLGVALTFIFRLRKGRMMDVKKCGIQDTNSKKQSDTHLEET
Assay: Antagonist activity at PD-1/PD-L1 interaction (unknown origin)
Reported pIC50 is given for each of the following molecules.
The quantity pIC50 is defined as the negative base-10 logarithm of the molar concentration.

Consider the worked cases shown below.
{"Smiles text": "COc1cc(/C=C2\\CCc3c2cccc3-c2cccc3c2CC/C3=C\\c2cc(CN[C@H](CO)C(=O)O)cc(OC)c2)cc(CN[C@@H](CO)C(=O)O)c1", "Value reported": 8.54}
{"Smiles text": "Cc1c(/C=C/c2cc(CN[C@@H](CO)C(=O)O)ccc2C(F)(F)F)cccc1-c1ccc2c(c1)OCCO2", "Value reported": 7.89}

Now for the molecule whose pIC50 we want.
Ask: So what does the record say about pIC50 for COCCNCc1ccc(C(F)(F)F)c(/C=C/c2cccc(-c3cccc(/C=C/c4cc(CN[C@@](C)(CO)C(=O)O)ccc4C(F)(F)F)c3C)c2Cl)c1 ?
Result: 8.64
